Tested on: 435261-313-R-J1-PDC complex spheroid viability
Test Details: Anticancer human tumor 435261-313-R-J1-PDC patient-derived colon adenocarcinoma cell line growth inhibition [GQUAD]; active means viability on the fitted dose curve at most 10% of control; inactive means the rest
Settings: second compound 0.1 µM; first compound 10 µM
Outcome codes: active, inactive

[
  {
    "Compound": "C#Cc1c(F)ccc2cc(O)cc(-c3ncc4c(N5CC6CCC(C5)N6)nc(OCC56CCCN5CC(F)C6)nc4c3F)c12 (stereo not given) + CN(C)c1ccc(Nc2c3ccc(NC(=O)CCN4CCCC4)cc3nc3cc(NC(=O)CCN4CCCC4)ccc23)cc1",
    "Target Or System": "435261-313-R-J1-PDC complex spheroid viability",
    "Discrete Label": "inactive"
  },
  {
    "Compound": "C=CCn1c(=O)c2cnc(Nc3ccc(N4CCN(C)CC4)cc3)nc2n1-c1cccc(C(C)(C)O)n1 + Cc1cnc(CNC(=O)c2c(=O)c3ccc(N4CCCN(C)CC4)nc3n3c2sc2ccccc23)cn1",
    "Target Or System": "435261-313-R-J1-PDC complex spheroid viability",
    "Discrete Label": "inactive"
  },
  {
    "Compound": "C=CCn1c(=O)c2cnc(Nc3ccc(N4CCN(C)CC4)cc3)nc2n1-c1cccc(C(C)(C)O)n1 + CN(C)c1ccc(Nc2c3ccc(NC(=O)CCN4CCCC4)cc3nc3cc(NC(=O)CCN4CCCC4)ccc23)cc1",
    "Target Or System": "435261-313-R-J1-PDC complex spheroid viability",
    "Discrete Label": "inactive"
  },
  {
    "Compound": "COc1cccc2c1C(=O)c1c(O)c3c(c(O)c1C2=O)CC(O)(C(=O)CO)CC3OC1CC(N)C(O)C(C)O1 (stereo not given) + CN(C)c1ccc(Nc2c3ccc(NC(=O)CCN4CCCC4)cc3nc3cc(NC(=O)CCN4CCCC4)ccc23)cc1",
    "Target Or System": "435261-313-R-J1-PDC complex spheroid viability",
    "Discrete Label": "active"
  },
  {
    "Compound": "COc1cccc2c1C(=O)c1c(O)c3c(c(O)c1C2=O)CC(O)(C(=O)CO)CC3OC1CC(N)C(O)C(C)O1 (stereo not given) + Cc1cnc(CNC(=O)c2c(=O)c3ccc(N4CCCN(C)CC4)nc3n3c2sc2ccccc23)cn1",
    "Target Or System": "435261-313-R-J1-PDC complex spheroid viability",
    "Discrete Label": "active"
  },
  {
    "Compound": "CC(C)n1c(=O)n(C)c2cnc3cc(F)c(-c4ccc(OCCCN5CCCCC5)nc4)cc3c21 + CN(C)c1ccc(Nc2c3ccc(NC(=O)CCN4CCCC4)cc3nc3cc(NC(=O)CCN4CCCC4)ccc23)cc1",
    "Target Or System": "435261-313-R-J1-PDC complex spheroid viability",
    "Discrete Label": "inactive"
  },
  {
    "Compound": "O=C(c1cc(Cc2n[nH]c(=O)c3ccccc23)ccc1F)N1CCN(C(=O)C2CC2)CC1 + CN(C)c1ccc(Nc2c3ccc(NC(=O)CCN4CCCC4)cc3nc3cc(NC(=O)CCN4CCCC4)ccc23)cc1",
    "Target Or System": "435261-313-R-J1-PDC complex spheroid viability",
    "Discrete Label": "inactive"
  },
  {
    "Compound": "O=C(NO)c1cnc(N2CCN(S(=O)(=O)c3ccc4ccccc4c3)CC2)nc1 + Cc1[nH]c2ccc(F)cc2c1-c1nc2c3cccnc3c3ncccc3c2[nH]1",
    "Target Or System": "435261-313-R-J1-PDC complex spheroid viability",
    "Discrete Label": "active"
  },
  {
    "Compound": "CCCS(=O)(=O)Nc1ccc(F)c(C(=O)c2c[nH]c3ncc(-c4ccc(Cl)cc4)cc23)c1F + CN(C)c1ccc(Nc2c3ccc(NC(=O)CCN4CCCC4)cc3nc3cc(NC(=O)CCN4CCCC4)ccc23)cc1",
    "Target Or System": "435261-313-R-J1-PDC complex spheroid viability",
    "Discrete Label": "inactive"
  },
  {
    "Compound": "COc1ccc([C@@H](O)c2cc(-c3ncnc4cc(N5CCOCC5)ccc34)c(F)cc2Cl)nn1 + Cc1cnc(CNC(=O)c2c(=O)c3ccc(N4CCCN(C)CC4)nc3n3c2sc2ccccc23)cn1",
    "Target Or System": "435261-313-R-J1-PDC complex spheroid viability",
    "Discrete Label": "inactive"
  }
]

* * *

System: 435261-313-R-J1-PDC complex spheroid viability
Test Details: Anticancer human tumor 435261-313-R-J1-PDC cell line growth inhibition [GQUAD];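 further: spheroids exposed to the agents for seven days before readout; percent of vehicle control viability with DMSO wells as 100%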
Settings: second compound 10 µM; first compound 0.316 µM; stronger effect = lower value

[
  {
    "Molecule": "C#Cc1c(F)ccc2cc(O)cc(-c3ncc4c(N5CC6CCC(C5)N6)nc(OCC56CCCN5CC(F)C6)nc4c3F)c12 (stereo unspecified) + Cc1[nH]c2ccc(F)cc2c1-c1nc2c3cccnc3c3ncccc3c2[nH]1",
    "Target Or System": "435261-313-R-J1-PDC complex spheroid viability",
    "viability, T/C [%]": 28.4
  },
  {
    "Molecule": "CCc1c2c(nc3ccc(O)cc13)-c1cc3c(c(=O)n1C2)COC(=O)[C@]3(O)CC + Cc1[nH]c2ccc(F)cc2c1-c1nc2c3cccnc3c3ncccc3c2[nH]1",
    "Target Or System": "435261-313-R-J1-PDC complex spheroid viability",
    "viability, T/C [%]": 17.3
  },
  {
    "Molecule": "Cn1ncnc1[C@H]1c2n[nH]c(=O)c3cc(F)cc(c23)N[C@@H]1c1ccc(F)cc1 + Cc1[nH]c2ccc(F)cc2c1-c1nc2c3cccnc3c3ncccc3c2[nH]1",
    "Target Or System": "435261-313-R-J1-PDC complex spheroid viability",
    "viability, T/C [%]": 22.1
  },
  {
    "Molecule": "Cn1ncnc1[C@H]1c2n[nH]c(=O)c3cc(F)cc(c23)N[C@@H]1c1ccc(F)cc1 + CN(C)c1ccc(Nc2c3ccc(NC(=O)CCN4CCCC4)cc3nc3cc(NC(=O)CCN4CCCC4)ccc23)cc1",
    "Target Or System": "435261-313-R-J1-PDC complex spheroid viability",
    "viability, T/C [%]": 35.3
  },
  {
    "Molecule": "C#Cc1c(F)ccc2cc(O)cc(-c3ncc4c(N5CC6CCC(C5)N6)nc(OCC56CCCN5CC(F)C6)nc4c3F)c12 (stereo unspecified) + CN(C)c1ccc(Nc2c3ccc(NC(=O)CCN4CCCC4)cc3nc3cc(NC(=O)CCN4CCCC4)ccc23)cc1",
    "Target Or System": "435261-313-R-J1-PDC complex spheroid viability",
    "viability, T/C [%]": 42.1
  },
  {
    "Molecule": "Nc1ccn(C2OC(CO)C(O)C2(F)F)c(=O)n1 (stereo unspecified) + CN(C)c1ccc(Nc2c3ccc(NC(=O)CCN4CCCC4)cc3nc3cc(NC(=O)CCN4CCCC4)ccc23)cc1",
    "Target Or System": "435261-313-R-J1-PDC complex spheroid viability",
    "viability, T/C [%]": 26.2
  },
  {
    "Molecule": "CC(=O)O[C@H]1C(=O)[C@@]2(C)[C@H]([C@H](OC(=O)c3ccccc3)[C@]3(O)C[C@H](OC(=O)[C@H](O)[C@@H](NC(=O)c4ccccc4)c4ccccc4)C(C)=C1C3(C)C)[C@]1(OC(C)=O)CO[C@@H]1C[C@@H]2O + Cc1cnc(CNC(=O)c2c(=O)c3ccc(N4CCCN(C)CC4)nc3n3c2sc2ccccc23)cn1",
    "Target Or System": "435261-313-R-J1-PDC complex spheroid viability",
    "viability, T/C [%]": 0.15
  },
  {
    "Molecule": "COc1cc(C2c3cc4c(cc3C(OC3OC5COC(C)OC5C(O)C3O)C3COC(=O)C23)OCO4)cc(OC)c1O (stereo unspecified) + Cc1cnc(CNC(=O)c2c(=O)c3ccc(N4CCCN(C)CC4)nc3n3c2sc2ccccc23)cn1",
    "Target Or System": "435261-313-R-J1-PDC complex spheroid viability",
    "viability, T/C [%]": 0.12
  },
  {
    "Molecule": "CC1COCCN1c1cc(C2(S(C)(=N)=O)CC2)nc(-c2ccnc3[nH]ccc23)n1 (stereo unspecified) + CN(C)c1ccc(Nc2c3ccc(NC(=O)CCN4CCCC4)cc3nc3cc(NC(=O)CCN4CCCC4)ccc23)cc1",
    "Target Or System": "435261-313-R-J1-PDC complex spheroid viability",
    "viability, T/C [%]": 32.9
  },
  {
    "Molecule": "O=C(NO)c1cnc(N2CCN(S(=O)(=O)c3ccc4ccccc4c3)CC2)nc1 + Cc1[nH]c2ccc(F)cc2c1-c1nc2c3cccnc3c3ncccc3c2[nH]1",
    "Target Or System": "435261-313-R-J1-PDC complex spheroid viability",
    "viability, T/C [%]": 20.8
  },
  {
    "Molecule": "COc1cc(C2c3cc4c(cc3C(OC3OC5COC(C)OC5C(O)C3O)C3COC(=O)C23)OCO4)cc(OC)c1O (stereo unspecified) + CN(C)c1ccc(Nc2c3ccc(NC(=O)CCN4CCCC4)cc3nc3cc(NC(=O)CCN4CCCC4)ccc23)cc1",
    "Target Or System": "435261-313-R-J1-PDC complex spheroid viability",
    "viability, T/C [%]": 37.9
  },
  {
    "Molecule": "O=c1[nH]cc(F)c(=O)[nH]1 + Cc1[nH]c2ccc(F)cc2c1-c1nc2c3cccnc3c3ncccc3c2[nH]1",
    "Target Or System": "435261-313-R-J1-PDC complex spheroid viability",
    "viability, T/C [%]": 19
  },
  {
    "Molecule": "O=c1[nH]cc(F)c(=O)[nH]1 + CN(C)c1ccc(Nc2c3ccc(NC(=O)CCN4CCCC4)cc3nc3cc(NC(=O)CCN4CCCC4)ccc23)cc1",
    "Target Or System": "435261-313-R-J1-PDC complex spheroid viability",
    "viability, T/C [%]": 41.8
  },
  {
    "Molecule": "CC(C)n1c(=O)n(C)c2cnc3cc(F)c(-c4ccc(OCCCN5CCCCC5)nc4)cc3c21 + CN(C)c1ccc(Nc2c3ccc(NC(=O)CCN4CCCC4)cc3nc3cc(NC(=O)CCN4CCCC4)ccc23)cc1",
    "Target Or System": "435261-313-R-J1-PDC complex spheroid viability",
    "viability, T/C [%]": 14.8
  },
  {
    "Molecule": "CCCS(=O)(=O)Nc1ccc(F)c(C(=O)c2c[nH]c3ncc(-c4ccc(Cl)cc4)cc23)c1F + CN(C)c1ccc(Nc2c3ccc(NC(=O)CCN4CCCC4)cc3nc3cc(NC(=O)CCN4CCCC4)ccc23)cc1",
    "Target Or System": "435261-313-R-J1-PDC complex spheroid viability",
    "viability, T/C [%]": 33.9
  },
  {
    "Molecule": "CCc1c2c(nc3ccc(O)cc13)-c1cc3c(c(=O)n1C2)COC(=O)[C@]3(O)CC + CN(C)c1ccc(Nc2c3ccc(NC(=O)CCN4CCCC4)cc3nc3cc(NC(=O)CCN4CCCC4)ccc23)cc1",
    "Target Or System": "435261-313-R-J1-PDC complex spheroid viability",
    "viability, T/C [%]": 13.6
  },
  {
    "Molecule": "Cc1[nH]c2ccccc2c1CCNCc1ccc(/C=C/C(=O)NO)cc1 + Cc1[nH]c2ccc(F)cc2c1-c1nc2c3cccnc3c3ncccc3c2[nH]1",
    "Target Or System": "435261-313-R-J1-PDC complex spheroid viability",
    "viability, T/C [%]": 0.79
  },
  {
    "Molecule": "C=CC(=O)N1CCN(c2nc(=O)n(-c3c(C)ccnc3C(C)C)c3nc(-c4c(O)cccc4F)c(F)cc23)C(C)C1 (stereo unspecified) + Cc1cnc(CNC(=O)c2c(=O)c3ccc(N4CCCN(C)CC4)nc3n3c2sc2ccccc23)cn1",
    "Target Or System": "435261-313-R-J1-PDC complex spheroid viability",
    "viability, T/C [%]": 0.17
  },
  {
    "Molecule": "CC(C)n1c(=O)n(C)c2cnc3cc(F)c(-c4ccc(OCCCN5CCCCC5)nc4)cc3c21 + Cc1cnc(CNC(=O)c2c(=O)c3ccc(N4CCCN(C)CC4)nc3n3c2sc2ccccc23)cn1",
    "Target Or System": "435261-313-R-J1-PDC complex spheroid viability",
    "viability, T/C [%]": 0.2
  },
  {
    "Molecule": "O=C(c1cc(Cc2n[nH]c(=O)c3ccccc23)ccc1F)N1CCN(C(=O)C2CC2)CC1 + CN(C)c1ccc(Nc2c3ccc(NC(=O)CCN4CCCC4)cc3nc3cc(NC(=O)CCN4CCCC4)ccc23)cc1",
    "Target Or System": "435261-313-R-J1-PDC complex spheroid viability",
    "viability, T/C [%]": 31
  },
  {
    "Molecule": "CC1COCCN1c1cc(-c2ccnn2C)c2ccnc(-c3ccn[nH]3)c2n1 (stereo unspecified) + CN(C)c1ccc(Nc2c3ccc(NC(=O)CCN4CCCC4)cc3nc3cc(NC(=O)CCN4CCCC4)ccc23)cc1",
    "Target Or System": "435261-313-R-J1-PDC complex spheroid viability",
    "viability, T/C [%]": 21.6
  }
]

These measurements were taken from PubChem BioAssay AID2060494.
